Target: Fibroblast growth factor receptor 1 (Homo sapiens);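 note: values are the mean percent inhibition of FGFR1 across replicate measurements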
Conditions: at 1 µM

compound: CNC(=O)c1cncc(/C=C/c2c(Cl)cccc2Cl)c1
inhibition / %: -1.56
//
compound: CCc1cccc(NC(=O)Nc2ccc(Oc3ccc4nc(NC(=O)OC)[nH]c4c3)cc2)c1
inhibition / %: 3.26
//
compound: CC(C)=Cc1cccc2c1/C(=N/Nc1ccc(S(N)(=O)=O)cc1)C(=O)N2
inhibition / %: 14.7
//
compound: Cc1cccc(-c2n[nH]cc2-c2ccc3ncccc3n2)n1
inhibition / %: 8.38
//
compound: Cc1ccc(C(=O)NC2CCCCC2)cc1-c1ccc(C(=O)NCC2CC2)cc1
inhibition / %: 5.66
//
compound: CS(=O)(=O)CCNCc1ccc(-c2ccc3ncnc(Nc4ccc(OCc5ccccc5)c(Cl)c4)c3c2)o1
inhibition / %: 3.71
//
compound: O=C1NC(=O)C(c2ccccc2Cl)=C1Nc1cccc(O)c1
inhibition / %: 7.05
//
compound: CCn1c(-c2nonc2N)nc2cncc(C(=O)N3CC[C@H](N)C3)c21
inhibition / %: 1.87
//
compound: Nc1ncnc2occ(-c3ccc(NC(=O)Nc4cccc(C(F)(F)F)c4)cc3)c12
inhibition / %: 38.2
//
compound: Nc1ncnc2occ(-c3ccc(NC(=O)Nc4cc(C(F)(F)F)cc(C(F)(F)F)c4)cc3)c12
inhibition / %: 43.7
//
compound: NS(=O)(=O)c1cccc(-c2ccc3c(NC(=O)C4CC4)n[nH]c3c2)c1
inhibition / %: -2.92
//
compound: CCn1c(-c2nonc2N)nc2c(N3CCCC3)nccc21
inhibition / %: -1.9
//
compound: CN1CCC(C(=O)Nc2n[nH]c3nnc(-c4ccccc4)cc23)CC1
inhibition / %: 4.3
//
compound: O=C1NC(=O)C(c2cccc(Cl)c2)=C1Nc1ccc(O)c(Cl)c1
inhibition / %: 6.97
//
compound: Nc1nc(-c2ccccn2)c(-c2ccc3ncccc3n2)s1
inhibition / %: 5.84
//
compound: CCN1CCC(CC(=O)Nc2n[nH]c3nc(-c4cccs4)c(Br)cc23)CC1
inhibition / %: -1.95
//
compound: NC(=O)c1ccc(-c2nc(-c3ccccn3)c(-c3ccc4c(c3)OCO4)[nH]2)cc1
inhibition / %: 2.26
//
compound: CCCN1CCC(Oc2cc(Nc3nc(Nc4cccc(F)c4C(N)=O)c4cc[nH]c4n3)c(OC)cc2Cl)CC1
inhibition / %: 3.54
//
compound: COc1ccc(-c2ccncc2)cc1C(N)=O
inhibition / %: 8.58
//
compound: O=C1NC(=O)C(N2CCc3ccccc32)=C1c1ccc(Cl)cc1
inhibition / %: 13
//
compound: CC(=O)Nc1cccc(C#Cc2cncnc2Nc2ccc(OCc3cccc(F)c3)c(Cl)c2)n1
inhibition / %: -5.8

* * *

Biological target: Rho-associated protein kinase 2 (Homo sapiens) (UniProt O75116);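 note: values are averaged inhibition readings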
Sequence (O75116 whole entry, looked up): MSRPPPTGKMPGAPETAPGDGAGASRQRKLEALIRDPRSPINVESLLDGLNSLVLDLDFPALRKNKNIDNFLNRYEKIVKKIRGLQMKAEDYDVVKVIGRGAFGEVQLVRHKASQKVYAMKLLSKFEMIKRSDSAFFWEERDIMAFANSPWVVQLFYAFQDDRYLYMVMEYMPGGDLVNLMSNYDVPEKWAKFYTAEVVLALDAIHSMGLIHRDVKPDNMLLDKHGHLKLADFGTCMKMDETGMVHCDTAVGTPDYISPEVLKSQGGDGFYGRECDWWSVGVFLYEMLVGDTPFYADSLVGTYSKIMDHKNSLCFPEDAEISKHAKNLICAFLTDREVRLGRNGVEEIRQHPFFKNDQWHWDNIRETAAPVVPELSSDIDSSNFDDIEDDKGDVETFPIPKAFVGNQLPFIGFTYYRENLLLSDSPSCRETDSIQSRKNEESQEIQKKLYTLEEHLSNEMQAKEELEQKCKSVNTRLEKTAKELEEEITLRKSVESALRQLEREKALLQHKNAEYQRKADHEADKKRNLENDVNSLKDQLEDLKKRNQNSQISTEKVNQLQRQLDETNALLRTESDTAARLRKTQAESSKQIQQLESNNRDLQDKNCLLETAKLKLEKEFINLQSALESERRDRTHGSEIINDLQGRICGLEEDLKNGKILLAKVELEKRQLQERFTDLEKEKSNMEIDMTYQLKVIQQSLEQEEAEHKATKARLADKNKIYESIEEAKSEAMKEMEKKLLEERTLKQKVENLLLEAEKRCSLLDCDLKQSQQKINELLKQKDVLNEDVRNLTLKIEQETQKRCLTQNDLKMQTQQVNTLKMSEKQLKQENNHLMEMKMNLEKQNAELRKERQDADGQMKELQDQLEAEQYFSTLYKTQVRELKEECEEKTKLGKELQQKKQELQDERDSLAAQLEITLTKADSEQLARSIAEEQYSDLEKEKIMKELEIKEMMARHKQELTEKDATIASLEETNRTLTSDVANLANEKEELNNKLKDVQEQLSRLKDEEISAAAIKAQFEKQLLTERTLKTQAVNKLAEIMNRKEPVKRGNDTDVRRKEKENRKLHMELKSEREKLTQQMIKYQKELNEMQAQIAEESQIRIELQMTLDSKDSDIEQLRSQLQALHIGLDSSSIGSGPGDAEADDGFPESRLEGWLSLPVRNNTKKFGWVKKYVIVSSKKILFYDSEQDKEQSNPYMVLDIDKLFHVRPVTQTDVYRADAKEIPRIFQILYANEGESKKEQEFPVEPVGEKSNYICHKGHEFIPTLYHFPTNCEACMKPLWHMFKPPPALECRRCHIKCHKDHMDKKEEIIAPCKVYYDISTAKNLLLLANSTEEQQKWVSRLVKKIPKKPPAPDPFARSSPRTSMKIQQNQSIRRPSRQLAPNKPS
Conditions: at 0.1 µM

compound: NC(=O)c1cccc(Nc2nccc(Nc3cccc4[nH]ncc34)n2)c1
inhibition: 1.22%
//
compound: Nc1ncnc2occ(-c3ccc(NC(=O)Nc4cccc(C(F)(F)F)c4)cc3)c12
inhibition: 11.1%
//
compound: c1cnn2ncc(-c3ccnc(Nc4ccc5c(c4)OCCO5)n3)c2c1
inhibition: 4.95%
//
compound: CCn1c(-c2nonc2N)nc2cncc(C(=O)N3CCNCC3)c21
inhibition: 3.45%
//
compound: CC1=C(C(=O)Nc2ccc3[nH]ncc3c2)C(c2ccc3ccccc3c2)CC(=O)N1 (stereo not given)
inhibition: 77%
//
compound: CS(=O)(=O)CCNCc1ccc(-c2ccc3ncnc(Nc4ccc(OCc5ccccc5)c(Cl)c4)c3c2)o1
inhibition: 1.28%
//
compound: Cc1cccc(-c2n[nH]cc2-c2ccc3ncccc3n2)n1
inhibition: 0.72%
//
compound: CC1=C(C(=O)Nc2ccc3[nH]ncc3c2)C(c2ccc(F)cc2)NC(=O)N1 (stereo not given)
inhibition: 64.1%
//
compound: COc1cc2ncn(-c3cc(OCc4ccccc4Cl)c(C(N)=O)s3)c2cc1OC
inhibition: -0.16%
//
compound: Cc1cc(O)cc(C)c1/C=C/c1cncc(-c2nn[nH]n2)c1
inhibition: 2.66%

Provenance of the data: ChEMBL document CHEMBL1961873
